Assay: Tmax in Sprague-Dawley rat at 10 mg/kg, po measured up to 24 hrs by LC-MS/MS analysis
Type: ADME, organism-based
Details: in vivo
MEASUREMENT_KIND: Tmax (h)
Give your result in h as a bare value.

Request: Entry O=C(Cc1c(-c2ccccc2)nc2ccccn12)Nc1ccc2c(c1)S(=O)(=O)C=C2 : reported Tmax = ?
Result: 1.67

###

System: MGC-803
Assay: Antiproliferative activity against human MGC-803 cells
Format: functional, cell-based
Below: a set of entries, each annotated with reported IC50.
Give your result in nM as a bare value.

Completed entries (count: 3):
* COc1ccc2nc(-c3ccccc3)c(CC(=O)Nc3ccc4c(c3)S(=O)(=O)C=C4)n2c1 | 1700
* COc1ccn2c(CC(=O)Nc3ccc(C4CCCCC4)cc3)c(-c3ccccc3)nc2c1 | 4700
* Cc1ccc2nc(-c3ccc(Cl)cc3)c(CC(=O)Nc3ccc4c(c3)S(=O)(=O)C=C4)n2c1 | 1600

Request: Entry Cc1ccn2c(CC(=O)Nc3ccc4c(c3)S(=O)(=O)C=C4)c(-c3ccccc3)nc2c1 : reported IC50 = ?
Result: 1000

###

Experiment: Metabolic stability in human liver microsomes assessed as half life at 0.1 uM preincubated for 10 mins followed by NADPH addition and measured upto 60 mins by LC-MS/MS analysis
Type: ADME, Microsome
Details: time <=70 min
MEASUREMENT_KIND: half-life at 0.1 µM (min)
Give your result in min as a bare value.

• COc1ccn2c(CC(=O)Nc3ccc4c(c3)S(=O)(=O)C=C4)c(-c3ccc(C(F)(F)F)cc3)nc2c1 = 4.4

Request: Entry O=C(Cc1c(-c2ccccc2)nc2ccccn12)Nc1ccc2c(c1)S(=O)(=O)C=C2 : reported half-life at 0.1 µM = ?
Result: 24.2

Request: Entry COc1ccn2c(CC(=O)Nc3ccc4c(c3)S(=O)(=O)C=C4)c(-c3ccccc3)nc2c1 : reported half-life at 0.1 µM = ?
Result: 10.1

###

Tested on: MGC-803
Assay: Antiproliferative activity against human MGC-803 cells
Format: functional, cell-based
hey, just use 1.0 if measured IC50 is less than 2000 nM, otherwise 0.0

Recorded results for 3 molecules are shown here.
• COc1ccn2c(CC(=O)Nc3ccc4c(c3)S(=O)(=O)C=C4)c(-c3cccs3)nc2c1 = 1.0
• COc1ccc2c(C(=O)Nc3ccc(-c4ccc(SC)cc4)cc3)cc(-c3ccccc3)nc2c1 = 0.0
• COc1ccn2c(CC(=O)Nc3ccc(-c4ccco4)cc3)c(-c3ccccc3)nc2c1 = 0.0

Request: Confirm or reject: IC50 of COc1ccn2c(CC(=O)Nc3ccc4c(c3)S(=O)(=O)C=C4)c(-c3ccccc3)nc2c1 lies strictly below 2000 nM
Result: 1.0

Request: Confirm or reject: IC50 of COc1cccn2c(CC(=O)Nc3ccc4c(c3)S(=O)(=O)C=C4)c(-c3ccccc3)nc12 lies strictly below 2000 nM
Result: 1.0

Request: Confirm or reject: IC50 of Cc1ccc(-c2nc3ccc(C)cn3c2CC(=O)Nc2ccc3c(c2)S(=O)(=O)C=C3)cc1 lies strictly below 2000 nM
Result: 1.0

Request: Confirm or reject: IC50 of O=C(Cc1c(-c2ccccc2)nc2cc(-c3ccccc3)ccn12)Nc1ccc2c(c1)S(=O)(=O)C=C2 lies strictly below 2000 nM
Result: 1.0

Request: Confirm or reject: IC50 of COc1ccc(NC(=O)c2cc(-c3ccccc3)nc3cc(OC)ccc23)cc1 lies strictly below 2000 nM
Result: 0.0

Request: Confirm or reject: IC50 of Cc1ccc(-c2nc3ccccn3c2CC(=O)Nc2ccc3c(c2)S(=O)(=O)C=C3)cc1 lies strictly below 2000 nM
Result: 0.0
